The values you see were collected from PubChem BioAssay AID1117263.

target: Sialate O-acetylesterase (Homo sapiens); test: human SIAE inhibitors, retest, confirmation, biochemical, fluorescence polarization, FP-Rh probe, triplicate (AID 1117263); settings: SIAE FP-Rh activity-based probe, at 9.66 µM, active compounds read high;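 further: 0% = SIAE with DMSO and probe and 100% = probe without SIAE; inhibitors lower polarization as more probe stays unbound to SIAE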
Screen size: about 2,300 compounds; about 300 (13%) were called active. Only a sample is shown.
So basically: inhibition at 20% or higher? That is 1.0. Lower than 20%? That is 0.0.

Hi team, for CCOc1ccc(Cn2c(SCCCCC#N)nc3c2c(=O)n(C)c(=O)n3C)cc1OCC , is the recorded inhibition at or above 20%? 0.0

Is it the case that CC(=O)Nc1ccc(Nc2cc(C)nc(Nc3ccc(NC(C)=O)cc3)n2)cc1 has inhibition reaching or exceeding 20%? 0.0

Say whether CCN(CC)CCCC(C)n1c2nc(=O)[nH]c(=O)c-2nc2cc(Cl)ccc21 (stereo not given) shows inhibition of 20% or more. 1.0

Quick check: does CCCCC[C@H](C)N1C[C@@H](COCc2ccccc2)Oc2cc(N3CC[C@@H](N(C)C)C3)ccc2S1(=O)=O have inhibition greater than or equal to 20%? 1.0

Kindly determine if inhibition recorded for Nc1ccc2nc3c(=O)[nH]c(=S)[nH]c3nc2c1 is above or exactly 20%. 1.0
